- Test system: C2C12 myotubes
- Condition info: normalized composite Z-score vs mock-treated (DMSO) wells; Conc 20 μM
# Viability values compiled below

For orientation, consider the following solved cases.
{"Compound": "CC(C)c1ccc2c(c1)CC[C@H]1[C@](C)(C(N)=O)CCC[C@]21C [dehydroabietamide]", "Value reported": 0.807}
{"Compound": "C[C@@H]1O[C@@H](O[C@H]2[C@H](Oc3cc(O)c4c(=O)cc(-c5ccc(O)cc5)oc4c3)O[C@H](CO)[C@@H](O)[C@@H]2O)[C@H](O)[C@H](O)[C@H]1O [rhoifolin]", "Value reported": 0.089}
{"Compound": "COc1ccc(-c2cc(=O)c3c(O)cc(O)cc3o2)cc1O [diosmetin]", "Value reported": 0.174}
{"Compound": "COc1ccc2c(=O)c(OC)c(-c3ccccc3)oc2c1 [3,7-dimethoxyflavone]", "Value reported": "−0.730"}
{"Compound": "CC1(O)/C=C\\C=C(\\CO)C2CC(C)(C)C2(O)CC1 (stereo not shown) [punctaporin B]", "Value reported": 0.554}
{"Compound": "Cc1c(O)c(O)cc2c1CC=C1[C@@]2(C)CC[C@@]2(C)[C@@H]3C[C@](C)(C(=O)O)CC[C@]3(C)CC[C@]12C [Dihydrocelastrol, reference compound]", "Value reported": "−4.120"}

Query: Provide Viability, tested on C2C12 myotubes, for CC1=CC(=O)CC(C)(C)[C@@]1(O)/C=C/C(C)=C\C(=O)O [abscisic acid] .
Reply: 0.309

Query: Find Viability for CC1=C2C(O)C(=O)OC3CC4C(C)(C)C(=O)C=C[C@]4(C)C(CC1)[C@]23C (stereo partly shown) [merogedunin] on C2C12 myotubes and write it down.
Reply: −0.222

Query: With C2C12 myotubes as the test system, provide measured Viability for this compound: CC1OC(OC2C(O)COC(OC3C(C)OC(OC4C(OC(=O)C56CCC(C)(C)CC5C5=CCC7C8(C)CCC(OC9OC(CO)C(O)C(O)C9O)C(C)(C)C8CCC7(C)C5(C)CC6O)OCC(O)C4O)C(O)C3O)C2O)C(O)C(O)C1O (stereo not shown) [chrysanthellin A]
Reply: −4.075

Query: Retrieve Viability on C2C12 myotubes; query COc1ccc2c(c1)C1(C)CCC(=O)CC1CC2 (stereo not shown)
Reply: −0.071

Query: Please report Viability with C2C12 myotubes for item CC1(C)C(=O)CC[C@@]2(C)C1C[C@@H](O)[C@@]1(C)C3=CC(=O)O[C@@H](c4ccoc4)[C@]3(C)CCC21 (stereo partly shown) [dihydro-7-desacetyldeoxygedunin] .
Reply: −0.527

Query: Recall the reported Viability of COc1ccc(-c2cc(=O)c3c(O)cc(O)c(-c4cc(-c5cc(=O)c6c(O)cc(O)cc6o5)ccc4OC)c3o2)cc1 [isoginkgetin] when tested on C2C12 myotubes.
Reply: 2.182

Query: Look up and report measured Viability (C2C12 myotubes) for the following compound: COc1cc2c(cc1OC)C1C(=O)c3c(cc4c(c3O)C=CC(C)(C)O4)OC1CO2 (stereo not drawn) [beta-toxicarol, reference compound]
Reply: 0.672
